Catalogue of compounds with associated Ki
Target: Amine oxidase [flavin-containing] A (Homo sapiens, UniProt P21397)
Sequence (P21397 whole entry): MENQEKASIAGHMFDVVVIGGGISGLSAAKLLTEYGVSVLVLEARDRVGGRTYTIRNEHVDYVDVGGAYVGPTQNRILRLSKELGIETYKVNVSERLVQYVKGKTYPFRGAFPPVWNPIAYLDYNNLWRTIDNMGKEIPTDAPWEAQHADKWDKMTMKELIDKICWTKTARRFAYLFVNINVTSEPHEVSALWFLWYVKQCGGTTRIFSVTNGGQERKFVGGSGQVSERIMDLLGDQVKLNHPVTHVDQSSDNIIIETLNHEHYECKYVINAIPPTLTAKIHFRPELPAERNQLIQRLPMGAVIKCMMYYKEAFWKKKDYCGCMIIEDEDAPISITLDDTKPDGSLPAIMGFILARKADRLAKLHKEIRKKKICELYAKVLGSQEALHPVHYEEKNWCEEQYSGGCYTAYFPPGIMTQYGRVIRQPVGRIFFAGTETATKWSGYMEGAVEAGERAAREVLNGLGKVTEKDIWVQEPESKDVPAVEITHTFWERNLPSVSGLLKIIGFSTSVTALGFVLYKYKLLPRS
Experiment: Inhibition of recombinant human MAO-A expressed in baculovirus infected BTI insect cells using p-tyramine as substrate incubated for 30 mins by Amplex red reagent based fluorescence analysis
parameter: Ki (nM)

>>> value_reported("COc1ccccc1C(/C=C/c1ccccc1Cl)=N/NC(=O)Cn1c(=O)oc2ccc(C)cc21")
11
>>> value_reported("Cc1ccc(C2CC(c3ccccc3)=NN2C(=O)Cn2c(=O)oc3ccc(C)cc32)cc1 (centres undefined)")
8
>>> value_reported("COc1cccc(C2CC(c3ccccc3)=NN2C(=O)Cn2c(=O)oc3ccccc32)c1 (centres undefined)")
8
>>> value_reported("COc1ccc(C2=NN(C(=O)Cn3c(=O)oc4ccc(C)cc43)C(c3cccc(OC)c3OC)C2)cc1 (centres undefined)")
9

---

Assay: Selectivity index, ratio of Ki for inhibition of recombinant human MAO-A to Ki for inhibition of recombinant human MAO-B using p-tyramine as substrate
Listed next: entries and their corresponding Ratio Ki.
parameter: Ratio Ki

>>> value_reported("COc1cccc(C2=NN(C(=O)Cn3c(=O)oc4ccc(C)cc43)C(c3ccccc3Cl)C2)c1 (stereo not given)")
"4.52 10^-4No_unit"
>>> value_reported("COc1cccc(/C=C/C(=N\\NC(=O)Cn2c(=O)oc3ccccc32)c2ccccc2)c1")
"1.12 10^-4No_unit"
>>> value_reported("COc1cccc(C2CC(c3ccccc3)=NN2C(=O)Cn2c(=O)oc3ccc(C)cc32)c1 (stereo not given)")
"2.35 10^-4No_unit"
>>> value_reported("COc1ccc(C2=NN(C(=O)Cn3c(=O)oc4ccccc43)C(c3cccc(OC)c3OC)C2)cc1 (stereo not given)")
"4.9 10^-4No_unit"
>>> value_reported("COc1cccc(C2CC(c3ccc(C)cc3)=NN2C(=O)Cn2c(=O)oc3ccccc32)c1OC (stereo not given)")
"2.32 10^-4No_unit"

---

Ratio Ki for assorted compounds
Test: Selectivity index, ratio of Ki for inhibition of recombinant human MAO-A to Ki for inhibition of recombinant human MAO-B using p-tyramine as substrate
parameter: Ratio Ki

>>> value_reported("COc1ccc(C(/C=C/c2ccccc2Cl)=N/NC(=O)Cn2c(=O)oc3ccccc32)cc1")
"3.43 10^-5No_unit"
>>> value_reported("COc1ccccc1C(/C=C/c1ccccc1Cl)=N/NC(=O)Cn1c(=O)oc2ccc(Cl)cc21")
"1.08 10^-4No_unit"
>>> value_reported("COc1ccccc1/C=C/C(=N\\NC(=O)Cn1c(=O)oc2ccc(Cl)cc21)c1ccccc1")
"7.27 10^-5No_unit"
>>> value_reported("COc1ccc(C2=NN(C(=O)Cn3c(=O)oc4ccccc43)C(c3ccccc3Cl)C2)cc1 (centres undefined)")
"8 10^-4No_unit"

---

Test: Selectivity index, ratio of Ki for inhibition of recombinant human MAO-A to Ki for inhibition of recombinant human MAO-B using p-tyramine as substrate
parameter: Ratio Ki

>>> value_reported("O=C(Cn1c(=O)oc2ccccc21)N/N=C(\\C=C\\c1ccccc1)c1ccccc1")
"5.26 10^-5No_unit"
>>> value_reported("COc1cccc(C2CC(c3ccc(C)cc3)=NN2C(=O)Cn2c(=O)oc3ccc(Cl)cc32)c1OC (centres undefined)")
0.006
>>> value_reported("COc1ccc(C2=NN(C(=O)Cn3c(=O)oc4ccc(Cl)cc43)C(c3cccc(OC)c3OC)C2)cc1 (centres undefined)")
"1.94 10^-4No_unit"
>>> value_reported("COc1ccc(C2=NN(C(=O)Cn3c(=O)oc4ccc(C)cc43)C(c3cccc(OC)c3OC)C2)cc1 (centres undefined)")
"1.37 10^-5No_unit"

Source listed as ChEMBL document CHEMBL4706681.
